// data source = paper PMC11676667

# experiment.description: Plasma pharmacokinetics after single oral dose of Δ8-THCV in MCT oil (LC-MS/MS, non-compartmental analysis)
# Type: in vivo, human
# condition.context: 12.5 mg single oral Δ8-THCV in MCT oil; plasma; Mean (±SD)
Quick reference: tlast (time to last quantifiable concentration) of the listed items.
readout.name: tlast (time to last quantifiable concentration)

# compound, assay.result
measured = [
    ("CCCc1cc(O)c2c(c1)OC(C)(C)[C@@H]1CC=C(C(=O)O)C[C@@H]21", "8 (±0)"),
    ("CCCc1cc(O)c2c(c1)OC(C)(C)[C@@H]1CC=C(C)C[C@@H]21 [Δ8-THCV, Δ8-tetrahydrocannabivarin]", "5.3 (±2.3)"),
    ("CCCc1cc(O)c2c(c1)OC(C)(C)[C@@H]1CCC(C(=O)O)=C[C@@H]21", "6.8 (±1.7)"),
    ("CCCc1cc(O)c2c(c1)OC(C)(C)[C@@H]1CC=C(CO)C[C@@H]21 (racemic) [11-OH-Δ8-THCV, (±)-11-hydroxy-Δ8-THCV]", "3.6 (±1.7)"),
]

---

# experiment.description: Plasma pharmacokinetics after single oral dose of Δ8-THCV in MCT oil (LC-MS/MS, non-compartmental analysis)
# Format: in vivo, human
# condition.context: human, plasma, oral, 12.5 mg, 8 h; 12.5 mg Δ8-THCV dose; Median (IQ Range)

# molecule, concentration at 8 h
rows = [
    ("CCCc1cc(O)c2c(c1)OC(C)(C)[C@@H]1CC=C(C(=O)O)C[C@@H]21 [Δ8-THCV-COOH, 11-nor-9-carboxy-Δ8-THCV]", "0.0382 µg/mL"),
    ("CCCc1cc(O)c2c(c1)OC(C)(C)[C@@H]1CC=C(C)C[C@@H]21 [Δ8-THCV, Δ8-tetrahydrocannabivarin]", "0 µg/mL"),
    ("CCCc1cc(O)c2c(c1)OC(C)(C)[C@@H]1CCC(C)=C[C@@H]21 [Δ9-THCV, Δ9-tetrahydrocannabivarin]", "0 µg/mL"),
]

---

# experiment.description: Plasma pharmacokinetics after single oral dose of Δ8-THCV in MCT oil (LC-MS/MS, non-compartmental analysis)
# Assay type: in vivo, human
# condition.context: human, plasma, oral, 100 mg, 1 h; 100 mg Δ8-THCV dose; Mean (SD, %CV)
Quick reference: concentration at 1 h of the listed items.

# molecule, concentration at 1 h (ng/mL)
records = [
    ("CCCc1cc(O)c2c(c1)OC(C)(C)[C@@H]1CCC(C(=O)O)=C[C@@H]21 [Δ9-THCV-COOH, 11-nor-9-carboxy-Δ9-THCV]", 5.8),
    ("CCCCCc1cc(O)c2c(c1)OC(C)(C)[C@@H]1CC=C(C(=O)O)CC21 (single isomer, unassigned; (+)) [Δ8-THC-COOH, (+)-11-nor-Δ8-THC-9-carboxylic acid]", 0),
    ("CCCc1cc(O)c2c(c1)OC(C)(C)[C@@H]1CC=C(C(=O)O)C[C@@H]21 [Δ8-THCV-COOH, 11-nor-9-carboxy-Δ8-THCV]", 202),
    ("CCCc1cc(O)c2c(c1)OC(C)(C)[C@@H]1CC=C(C)C[C@@H]21 [Δ8-THCV, Δ8-tetrahydrocannabivarin]", 4.2),
    ("CCCc1cc(O)c2c(c1)OC(C)(C)[C@@H]1CCC(C)=C[C@@H]21 [Δ9-THCV, Δ9-tetrahydrocannabivarin]", 0.1),
    ("CCCc1cc(O)c2c(c1)OC(C)(C)[C@@H]1CC=C(CO)C[C@@H]21 (racemic) [11-OH-Δ8-THCV, (±)-11-hydroxy-Δ8-THCV]", 1.4),
]

---

# experiment.description: Plasma pharmacokinetics after single oral dose of Δ8-THCV in MCT oil (LC-MS/MS, non-compartmental analysis)
# Format: in vivo, human
# condition.context: human, plasma, oral, 50 mg, 8 h; 50 mg Δ8-THCV dose; Median (IQ Range)
readout.name: concentration at 8 h (ng/mL)

# compound, readout.name, assay.result
rows = [
    ("CCCc1cc(O)c2c(c1)OC(C)(C)[C@@H]1CC=C(CO)C[C@@H]21 (racemic) [11-OH-Δ8-THCV, (±)-11-hydroxy-Δ8-THCV]", "concentration at 8 h", 0.6),
    ("CCCCCc1cc(O)c2c(c1)OC(C)(C)[C@@H]1CC=C(C(=O)O)CC21 (single isomer, unassigned; (+)) [Δ8-THC-COOH, (+)-11-nor-Δ8-THC-9-carboxylic acid]", "concentration at 8 h", 0),
    ("CCCc1cc(O)c2c(c1)OC(C)(C)[C@@H]1CCC(C)=C[C@@H]21 [Δ9-THCV, Δ9-tetrahydrocannabivarin]", "concentration at 8 h", 0),
    ("CCCc1cc(O)c2c(c1)OC(C)(C)[C@@H]1CC=C(C)C[C@@H]21 [Δ8-THCV, Δ8-tetrahydrocannabivarin]", "concentration at 8 h", 2.2),
    ("CCCc1cc(O)c2c(c1)OC(C)(C)[C@@H]1CCC(C(=O)O)=C[C@@H]21", "concentration at 8 h", 5.2),
    ("CCCc1cc(O)c2c(c1)OC(C)(C)[C@@H]1CC=C(C(=O)O)C[C@@H]21", "concentration at 8 h", 148),
]

---

# experiment.description: Plasma pharmacokinetics after single oral dose of Δ8-THCV in MCT oil (LC-MS/MS, non-compartmental analysis)
# Assay type: in vivo, human
# condition.context: human, plasma, oral, 50 mg, 0.5 h; 50 mg Δ8-THCV dose; Median (IQ Range)

# compound, concentration at 0.5 h / ng/mL
records = [
    ("CCCc1cc(O)c2c(c1)OC(C)(C)[C@@H]1CCC(C(=O)O)=C[C@@H]21", 0),
    ("CCCCCc1cc(O)c2c(c1)OC(C)(C)[C@@H]1CC=C(C(=O)O)CC21 (single isomer, unassigned; (+)) [Δ8-THC-COOH, (+)-11-nor-Δ8-THC-9-carboxylic acid]", 0),
    ("CCCc1cc(O)c2c(c1)OC(C)(C)[C@@H]1CC=C(CO)C[C@@H]21 (racemic) [11-OH-Δ8-THCV, (±)-11-hydroxy-Δ8-THCV]", 0),
    ("CCCc1cc(O)c2c(c1)OC(C)(C)[C@@H]1CCC(C)=C[C@@H]21 [Δ9-THCV, Δ9-tetrahydrocannabivarin]", 0),
    ("CCCc1cc(O)c2c(c1)OC(C)(C)[C@@H]1CC=C(C(=O)O)C[C@@H]21", 1.3),
    ("CCCc1cc(O)c2c(c1)OC(C)(C)[C@@H]1CC=C(C)C[C@@H]21 [Δ8-THCV, Δ8-tetrahydrocannabivarin]", 0),
]

---

# experiment.description: Plasma pharmacokinetics after single oral dose of Δ8-THCV in MCT oil (LC-MS/MS, non-compartmental analysis)
# Assay type: in vivo, human
# condition.context: human, plasma, oral, present study, MCT oil formulation, as compared in discussion; read-out: tmax
readout.name: Tmax (h)

# compound, readout.name, assay.result
records = [
    ("CCCc1cc(O)c2c(c1)OC(C)(C)[C@@H]1CCC(C(=O)O)=C[C@@H]21 [Δ9-THCV-COOH, 11-nor-9-carboxy-Δ9-THCV]", "Tmax", 5),
]

---

Quick reference: concentration at 8 h of the listed items.
# experiment.description: Plasma pharmacokinetics after single oral dose of Δ8-THCV in MCT oil (LC-MS/MS, non-compartmental analysis)
# Assay type: in vivo, human
# condition.context: human, plasma, oral, 100 mg, 8 h; 100 mg Δ8-THCV dose; Mean (SD, %CV)
readout.name: concentration at 8 h (ng/mL)

# compound, readout.name, assay.result
data = [
    ("CCCc1cc(O)c2c(c1)OC(C)(C)[C@@H]1CC=C(C)C[C@@H]21 [Δ8-THCV, Δ8-tetrahydrocannabivarin]", "concentration at 8 h", 4.1),
    ("CCCc1cc(O)c2c(c1)OC(C)(C)[C@@H]1CC=C(C(=O)O)C[C@@H]21", "concentration at 8 h", 319),
    ("CCCc1cc(O)c2c(c1)OC(C)(C)[C@@H]1CCC(C(=O)O)=C[C@@H]21", "concentration at 8 h", 10.8),
    ("CCCc1cc(O)c2c(c1)OC(C)(C)[C@@H]1CCC(C)=C[C@@H]21 [Δ9-THCV, Δ9-tetrahydrocannabivarin]", "concentration at 8 h", 0),
    ("CCCCCc1cc(O)c2c(c1)OC(C)(C)[C@@H]1CC=C(C(=O)O)CC21 (single isomer, unassigned; (+)) [Δ8-THC-COOH, (+)-11-nor-Δ8-THC-9-carboxylic acid]", "concentration at 8 h", 0.1),
    ("CCCc1cc(O)c2c(c1)OC(C)(C)[C@@H]1CC=C(CO)C[C@@H]21 (racemic) [11-OH-Δ8-THCV, (±)-11-hydroxy-Δ8-THCV]", "concentration at 8 h", 1.3),
]
